Measured self-cleavage by item
B1: HDV Ribozyme (parent)
chain: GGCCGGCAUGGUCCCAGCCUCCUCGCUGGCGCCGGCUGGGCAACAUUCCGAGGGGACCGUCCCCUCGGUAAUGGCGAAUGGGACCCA

Variants of: B1
protocolDescription: self-cleavage, relative activity (ratio to wild type); higher = more cleavage; co-transcriptional

>  <mutationSpec>
A71U G76C

>  <observed>
0.914

$$$$

stdin: Could you share which self-cleavage value was measured for U23G C48A ?
stdout: 0.807

stdin: Could you share which self-cleavage value was measured for A51G A78C ?
stdout: 0.318

stdin: Could you share which self-cleavage value was measured for C57G G81A ?
stdout: 0.509

stdin: Could you share which self-cleavage value was measured for C75A G82A ?
stdout: 0.151

stdin: Could you share which self-cleavage value was measured for U37A C75G ?
stdout: 0.0852

stdin: Could you share which self-cleavage value was measured for C18G A43C ?
stdout: 0.332

stdin: Could you share which self-cleavage value was measured for C21G G52C ?
stdout: 0.111

stdin: Could you share which self-cleavage value was measured for U60G C85G ?
stdout: 1.09

stdin: Could you share which self-cleavage value was measured for A71G C86G ?
stdout: 1.01

stdin: Could you share which self-cleavage value was measured for C22G A51C ?
stdout: 0.116

stdin: Could you share which self-cleavage value was measured for C19A C21G ?
stdout: 0.166

stdin: Could you share which self-cleavage value was measured for G68C G73A ?
stdout: 0.193

stdin: Could you share which self-cleavage value was measured for `U47A` ?
stdout: 0.958

stdin: Could you share which self-cleavage value was measured for C48A G50U ?
stdout: 1.17

stdin: Could you share which self-cleavage value was measured for G1A C19U ?
stdout: 0.101

stdin: Could you share which self-cleavage value was measured for C26G G28C ?
stdout: 0.0504

stdin: Could you share which self-cleavage value was measured for G2A A83C ?
stdout: 0.0583

stdin: Could you share which self-cleavage value was measured for C4G C58G ?
stdout: 0.289
